- assay-explanation: restored growth of temperature-sensitive Mot1-301 yeast – S. cerevisiae, ATP luminescence, 38.5C, SUMOylation pathway inhibitor project, primary screen (AID 2716);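 also: OY570 slx delta 5 strain wells were the positive control but not used for scaling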
- measurement-parameters: S. cerevisiae Mot1-301 growth rescue, at 18.8 µM, hits give high values, percent above DMSO median, 100 means doubled
In all, about 320,000 compounds went through this assay and about 3,300 (1%) were called active. Many of the other results were omitted from the sample, so actives are more common in it than they were.
Below: a set of entries, each annotated with reported growth rescue.
measured-attribute: growth rescue (%)

1) CCc1cc(=O)oc2cc(C)cc(OC(C)C(=O)O)c12 (centres undefined): -0.434
2) O=C(CNC(=O)c1ccco1)NNC(=O)c1ccc(Br)cc1: 19.3
3) COc1cccc(/C=C(/CC(=O)Nc2ccc(N3CCOCC3)cc2)c2nc3ccccc3s2)c1: 766
4) CC(=O)c1cc(CN2CCC(n3nccc3NC(=O)c3ccccc3Cl)CC2)cs1: 13.8
